Test system: Plasma
Method notes: Plasma concentration in human treated with [14C]-labeled milnacipran hydrochloride at 100 mg, po measured at 2 hrs by HPLC analysis
Type: ADME, organism-based
Experimental conditions: in vivo
Value type: Cp (ng.Eq/ml)

CCN(CC)C(=O)C1(c2ccccc2)CC1CN (racemic) [MILNACIPRAN]	178.93
CCN(CC)C(=O)[C@]1(c2ccccc2)C[C@@H]1CNC(=O)O[C@@H]1O[C@H](C(=O)O)[C@@H](O)[C@H](O)[C@H]1O	190.14

###

Test system: Plasma
Method notes: Plasma concentration in human treated with [14C]-labeled milnacipran hydrochloride at 100 mg, po measured at 1.5 hrs by HPLC analysis
Assay type: ADME, organism-based
Experimental conditions: in vivo
Recorded measurements of Cp, one per entry
Value type: Cp (ng.Eq/ml)

CCN(CC)C(=O)[C@]1(c2ccccc2)C[C@@H]1CNC(=O)O[C@@H]1O[C@H](C(=O)O)[C@@H](O)[C@H](O)[C@H]1O	161.3
CCN(CC)C(=O)C1(c2ccccc2)CC1CN (racemic) [MILNACIPRAN]	156.73
